# Assay overview: NCI Yeast Anticancer Drug Screen. Data for the bub3 strain (AID 167)
# Condition info: S. cerevisiae bub3 mutant strain, at 50.0 µM, stronger effect = higher value
This is part of a sample that, as a whole, favours compounds with a hit. Of some 79,000 tested, about 15% had one in any assay.
I'd be grateful if you could share measured growth inhibition for these entries.
Numbers only, in %.

Example results:
1) Clc1nc(N2CCOCC2)c2[nH]cnc2n1 | 8.8
2) COc1cc2oc3cc(OC)c(OC)c(CC=C(C)C)c3c(=O)c2c(O)c1CC=C(C)C | -30.6
3) CC1CN=C(N(C(=O)Nc2ccc(Cl)cc2)c2cccc(Cl)c2)S1 (stereo not given) | -14.8

Hi there! I need growth inhibition for each item below, if you can.
1. CC(C)(N)CNCC(C)(C)N
2. CCCCCCCCCCCc1cc(=O)c2c(O)cccc2o1
3. CCCCCCC(=O)CC1(C(=O)OC)NC(=S)NC(=O)C1C#N (stereo not given)

-0.45
4
-9.55

I have 2 molecules here; please give me growth inhibition for each one.
1. O=C(ON=C1c2ccccc2C(Br)C(Br)c2ccccc21)c1cc([N+](=O)[O-])cc([N+](=O)[O-])c1 (stereo not given)
2. Cc1ccc(C(=O)c2sc(Nc3cccc(C(F)(F)F)c3)c(C#N)c2N)c(C)c1

1: 21.1; 2: 3.05

Record growth inhibition per entry; entries follow.
1. C[N+](C)(C)C1CC([N+](C)(C)C)C2c3ccccc3C21 (stereo not given)
2. O=C1CCC(N2C(=O)C3C4CCC(CC4)C3C2=O)C(=O)N1 (stereo not given)
3. CC(=O)OCC1OC(Nc2[nH]c(=O)n(C)c(=O)c2C=O)C(OC(C)=O)C(OC(C)=O)C1OC(C)=O (stereo not given)
4. c1ccc(C23c4ccccc4C2c2ccccc23)cc1 (stereo not given)

1: -3.35; 2: -2.65; 3: -0.4; 4: 18.3

----------
# Assay overview: NCI Yeast Anticancer Drug Screen. Data for the mec2-1 strain (AID 157)
# Condition info: S. cerevisiae mec2-1 strain, at 50.0 µM, stronger effect = higher value
Compounds without any hit were thinned out: in the full panel of roughly 79,000, 15% have a hit. The source made the active and inactive calls. Rule as the data show it: active = growth inhibition above about 70%; inactive = the rest.
Measured metric: growth inhibition

# count of solved cases: 4
1) CC(C)(C)OC(=O)C1CCC/C1=N/Nc1ccc([N+](=O)[O-])cc1[N+](=O)[O-] (configuration not stated) | -46% (inactive)
2) COc1ccc(N=Nc2sc(N)nc2-c2cccc([N+](=O)[O-])c2)cc1 | 4.85% (inactive)
3) Cc1ccc2[nH]c(=O)cc(C(F)(F)F)c2c1 | 6.35% (inactive)
4) O=C(O)C1Nc2ccccc2NC1=O (configuration not stated) | -3.15% (inactive)

Field: growth inhibition. Fill in for each record below.
1. NNS(=O)(=O)c1ccc(/C=C2\NC(=O)NC2=O)cc1
2. C/C(=N\NC(=O)c1ccccc1O)c1cccc(/C(C)=N/NC(=O)c2ccccc2O)n1.O=S(=O)([O-])[O-].[Fe+2]
3. C=C1CCc2ccccc2C1=O
4. COC(=O)C1=C(C(=O)OC)P2(C)(C)OC(c3ccccc3)CN2C1(c1ccccc1)c1ccccc1 (configuration not stated)

1.5% (inactive)
38.8% (inactive)
-4% (inactive)
9.15% (inactive)

Here are 7 molecules. What values of growth inhibition were reported for them?
1. CNCc1cccc(OC)c1OC
2. Cc1ccccc1C(=O)OC1CCCCC1
3. C=CCOCn1ccc(=O)[nH]c1=O
4. O=C1c2ccccc2-c2cc(Br)c(NC(=O)C3CCCCC3C(=O)O)cc21 (configuration not stated)
5. C/C(CC(=O)NCCc1ccccc1)=N\NS(=O)(=O)c1ccc(C)cc1
6. Cc1ccccc1/C=N\NC(=O)CCCC(=O)N/N=C/c1ccccc1C
7. NCC(=O)NCCC(=O)O

1. -5.4% (inactive)
2. -13.1% (inactive)
3. -3.05% (inactive)
4. 3.55% (inactive)
5. -6.6% (inactive)
6. 2.5% (inactive)
7. -6.7% (inactive)

----------
# Assay overview: NCI Yeast Anticancer Drug Screen. Data for the cln2 rad14 strain (AID 165);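 also: 0% = growth equal to vehicle treated cultures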
# Condition info: S. cerevisiae cln2 rad14 strain, at 50.0 µM, stronger effect = higher value
About 79,000 compounds went through this panel and 15% of them were active in at least one assay; those are over-represented in the sample as a whole. The source made the active and inactive calls. Rule as the data show it: active = growth inhibition above about 70%; inactive = the rest.
Measured metric: growth inhibition

1. Cc1cccc(-c2nc(-c3cnccn3)n(Cc3ccccc3)n2)c1 | -39.6% (inactive)

Please state growth inhibition for every compound in the list that follows.
1. CCOC(=O)c1c(Br)c(-c2ccc(OC)cc2)c(Br)n1C
2. Cc1ccccc1NC(=O)CSc1nnc(Cc2ccccc2)o1
3. COc1cc(OC)c(C2c3cc4c(cc3OC(N3CCCC3)C2C)OCO4)c(OC)c1 (configuration not stated)
4. CCCCNC(=O)Nc1cccc(C)c1C
5. COc1ccc(CNc2ncccn2)cc1

-48% (inactive)
-13.5% (inactive)
18% (inactive)
-25.8% (inactive)
9.5% (inactive)

Value sought for every listed compound: growth inhibition.
1. CN(C)Cc1cc(C(C)(C)C)ccc1-c1ccc(C(C)(C)C)cc1CN(C)C
2. Cc1ccc(S(=O)(=O)N2N=C(c3ccccc3)CC2c2ccccc2)cc1 (configuration not stated)
3. Cc1cc2c(C(C)C)c(O)c(O)c(C=Nc3ccccc3)c2c(O)c1-c1c(C)cc2c(C(C)C)c(O)c(O)c(C=Nc3ccccc3)c2c1O
4. CCN(CC)Cc1cc(OC)c(OC)c(OC)c1
5. CCCCCCn1c(=O)cc2n(c1=O)CCC2
6. CCCCCCCCCCCCCCCCCC(=O)O
7. CSC#CC(Sc1c(Cl)c(Cl)c(Cl)c(Cl)c1Cl)=C(Sc1c(Cl)c(Cl)c(Cl)c(Cl)c1Cl)Sc1c(Cl)c(Cl)c(Cl)c(Cl)c1Cl

1. 12.6% (inactive)
2. 81% (active)
3. -23% (inactive)
4. -50.9% (inactive)
5. 11.1% (inactive)
6. -5.75% (inactive)
7. -3.6% (inactive)

# batch: return growth inhibition for each of the 6 compounds below
1. Cc1ccc(O)c(C=O)c1
2. O=S(=O)(c1ccc(Nc2nnc(-c3ccccc3)s2)cc1)N1CCCCC1
3. CCCCC1C/C=C/C=C/C=C/C=C/C(OC2OC(C)C(O)C(N)C2O)CC2OC(O)(CC(O)CC3OC3/C=C/C(=O)O1)CC(O)C2C(=O)O (configuration not stated)
4. Cc1cc(=O)[nH]c(NNC(C#N)c2ccc([N+](=O)[O-])cc2)n1 (configuration not stated)
5. CCOC(=O)NN(C(=O)OCC)C(C)(C)C(C)=O
6. N#Cc1ccc(CC(=O)O)cc1

1: 11.7% (inactive); 2: -23.1% (inactive); 3: 17.6% (inactive); 4: -8.8% (inactive); 5: -29.2% (inactive); 6: 0.35% (inactive)

State the recorded growth inhibition for every item in the following list.
1. O=C(O)COc1c2occc2cc2ccc(=O)oc12
2. O=C(NC1C2CC3CC(C2)CC1C3)c1cc(/C=C/c2ccccc2)[nH]c(=S)n1 (configuration not stated)

1. 1.55% (inactive)
2. 12.2% (inactive)

----------
# Assay overview: NCI Yeast Anticancer Drug Screen. Data for the mec2-1 strain (AID 157)
# Condition info: S. cerevisiae mec2-1 strain, at 50.0 µM, stronger effect = higher value
# Description: Growth inhibition of yeast strains with defined genetic alterations is measured as a screen for potential anti-cancer activity. Selected strains with alterations in DNA damage repair or cell cycle control were exposed to compounds and growth inhibition was measured relative to vehicle treated controls. The strain used in this assay is mec2-1
About 79,000 compounds went through this panel and 15% of them were active in at least one assay; those are over-represented in the sample as a whole.
Please provide measured growth inhibition for the entries that follow.
Give bare numbers, in %.

# count of solved cases: 8
1. CCC1(C)OCC(C)(C)C(C(C)C)O1 (stereo not given) | 3
2. Cc1ccc2cc(CCCC(=O)O)ccc2c1 | 25.8
3. O=C(Cn1c(=O)oc2ccc(C(=O)c3cccc(Cl)c3)cc21)c1ccccc1 | -3.15
4. N#Cc1ccc(CCc2ccccc2)cc1 | -3.75
5. [O-]C(=N/C(=N/[n+]1ccccc1)c1ccccc1)c1ccccc1 | 10.9
6. C#CCN(C(=O)C(F)(F)F)C(/C=C\C(=O)OC)(C(=O)OCC)C(=O)OCC | -24.9
7. [O-]/[N+](=C\c1ccccc1)[C@H](COCc1ccccc1)c1ccccc1 | -17.1
8. NC(Cc1c[nH]c2ccc([N+](=O)[O-])cc12)C(=O)O (stereo not given) | -28.6

Batch request: growth inhibition per item, same order as input.
1. CC(C)NP(=O)(OC1CC(C)(C)N(O)C(C)(C)C1)OC1CC(C)(C)N(O)C(C)(C)C1
2. CC1=C(C)CC2(CC1)C(=O)C1(CCC(C)=C(C)C1)C2=O (stereo not given)
3. O=C(CCn1[nH]c(=O)c(Cl)c(Cl)c1=O)NNC(=O)C[n+]1ccccc1

1. 18.6
2. 0.7
3. -8.9

Below are some compounds; for each one, tell me its growth inhibition.
1. NC(CC(=O)O)C(=O)OCc1cccc(N=Nc2ccccc2)c1 (stereo not given)
2. Cn1c(=O)n2n(c1=O)C1C=CC2C2C=C(c3ccccc3)C21 (stereo not given)
3. CSC1NC(c2ccccc2)=C(C#N)C(=O)N1C1OCC(OC(C)=O)C(OC(C)=O)C1OC(C)=O (stereo not given)

1: -8.35; 2: -1.35; 3: -15.6

Requested field: growth inhibition. Item: NC(=O)NCC(N)C(=O)O (stereo not given) -5.2
